MIC overview
System: E. faecium^VRE
Assay: MIC by broth microdilution (aerobic pathogens), test strain 11
Format: cell-based, Vancomycin resistant Enterococcus faecium
Settings: Enterococcus faecium; test strain 11, E. faecium^VRE (vancomycin resistant); read-out: MIC
The response must be a number in µg/mL with no trailing unit.

Query block: Supply MIC value. Item: C/C=C1\NC(=O)[C@H]([C@@H](C)O)NC(=O)c2csc(n2)-c2ccc(-c3nc(-c4nc(C(=O)NC5(C(=O)NCC6OB(O)c7ccccc76)CC5)cs4)cs3)nc2-c2csc(n2)[C@H]([C@@H](C)O)NC(=O)c2csc(n2)[C@H](C(C)C)NC(=O)c2csc1n2 (stereo partly shown) [Compound 6]
Result block: 1

Query block: Supply MIC value. Item: C/C=C(\NC(=O)c1csc(-c2csc(-c3ccc4c(n3)-c3csc(n3)[C@H]([C@@H](C)O)NC(=O)c3csc(n3)[C@H](C(C)C)NC(=O)c3csc(n3)/C(=C/C)NC(=O)[C@H]([C@@H](C)O)NC(=O)c3csc-4n3)n2)n1)C(=O)NCCCN1CCOCC1 [Compound 48]
Result block: 1

Query block: Return the recorded MIC value; entry: C/C=C(\NC(=O)c1csc(-c2csc(-c3ccc4c(n3)-c3csc(n3)[C@H]([C@@H](C)O)NC(=O)c3csc(n3)[C@H](C(C)C)NC(=O)c3csc(n3)/C(=C/C)NC(=O)[C@H]([C@@H](C)O)NC(=O)c3csc-4n3)n2)n1)C(=O)NCCN1CCN(C)CC1 [Compound 46]
Result block: 0.5

Query block: Provide measured MIC value, entry: C/C=C1\NC(=O)[C@H]([C@@H](C)O)NC(=O)c2csc(n2)-c2ccc(-c3nc(-c4nc(C(=O)NC5(C(=O)NCCCCB(O)O)CC5)cs4)cs3)nc2-c2csc(n2)[C@H]([C@@H](C)O)NC(=O)c2csc(n2)[C@H](C(C)C)NC(=O)c2csc1n2 [Compound 20]
Result block: 1
